molecular target: BIR2 domain of XIAP (Homo sapiens (Human), UniProt P98170, C202A/C213G); test: TR-FRET assay for BIR2 (inhibition of binding of XIAP BIR2 domain to SMAC-derived Peptide A); conditions: 6x His-tagged BIR2 domain (aa 124-240 of XIAP) 10 nM, Peptide A 20 nM, TR-FRET; read-out: IC50 BIR2
Sequence (P98170 124-240 with tags or gaps C202A/C213G limits assumed): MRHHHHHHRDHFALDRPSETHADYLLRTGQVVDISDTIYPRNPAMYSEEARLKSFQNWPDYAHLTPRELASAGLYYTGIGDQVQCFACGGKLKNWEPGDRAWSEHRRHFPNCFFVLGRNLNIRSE
pIC50: −log10 of the molar value. Structures can show the parent of a compound that is named as a salt.
value_type: pIC50

Below are worked cases with known answers.
CN[C@@H](C)C(=O)N[C@H]1CN(C(=O)Cc2ccc(C(C)=O)cc2)c2ccccc2N(Cc2c(OC)ccc3cc(Br)ccc23)C1=O [Example 13o]	7.55
CN[C@@H](C)C(=O)N[C@H]1CN(C(=O)CC2CCCCC2)c2ccccc2N(Cc2c(C)ccc3ccccc23)C1=O [Example 96e]	6.16
CN[C@@H](C)C(=O)N[C@H]1CN(C(=O)C2CCOCC2)c2cc(C#N)ccc2N(Cc2c(C3CC3)cnc3ccccc23)C1=O [Example 180]	7.74
CN[C@@H](C)C(=O)N[C@H]1CN(C(=O)c2ccc(C(=O)OC)cc2)c2ccccc2N(Cc2c(OC)ccc3cc(Br)ccc23)C1=O [Example 28, hydrochloride]	7.41
CN[C@@H](C)C(=O)N[C@H]1CN(C(=O)c2ccc(C(F)(F)F)cc2)c2ccccc2N(Cc2c(OC)ccc3cc(Br)ccc23)C1=O [Example 91d]	7.74

P: CN[C@@H](C)C(=O)N[C@H]1CN(C(=O)c2ccc(C(C)=O)cc2)c2ccccc2N(Cc2nn(-c3ccccc3C#N)c3ccccc23)C1=O [Example 120, trifluoroacetate]
Q: CN[C@@H](C)C(=O)N[C@H]1CN(C(=O)CS(C)(=O)=O)c2cc(C#N)ccc2N(Cc2c(OC)ccc3c(Br)cccc23)C1=O [Example 160, hydrochloride]
Prompt line: For the pair P and Q , which entry has the numerically smaller recorded pIC50? Lab log: write the label of the selected item as the result.
Response line: Q
